EXPERIMENT NOTES: in vitro
CONDITION SET: human, hela cells, % viability
MEASURED ENDPOINT: viability at 28.5 h, 10 µM (%)
One number for each entry, in %.

Here are 4 molecules. What values of viability at 28.5 h, 10 µM were reported for them?
1. Cn1ccnc1C1(O)CCN(C(=O)c2cccc(F)c2)CC1
2. CCCc1ccc(S(=O)(=O)Nc2ccc(C(=O)N(CC)CC)cc2)cc1
3. CCCNC(=O)Cn1cnc2sc(C(=O)Nc3ccccc3OC)c(C)c2c1=O
4. C/C(=N\NC(=O)c1nc(-c2ccccc2)cc(-c2ccccc2)n1)c1ccc(F)cc1

107
92.3
90.3
110
